Data provenance is ChEMBL document CHEMBL4350958.

protocol_details: Therapeutic index, ratio of MHC10 for hemolytic activity in human RBC to MIC95 against Candida tropicalis cgmcc2.1975
Type: toxicity
condition_notes: human red blood cells (erythrocytes), read-out: TI
Threshold check on selectivity ratio: at or above 30 gives T, strictly below gives F.

Reference set (5 entries):
H-AARIILRNRFR-NH2 ... F
H-AARIILRTRFR-NH2 ... F
H-AARIILRWFRR-NH2 ... T
H-AAKIILNPKFR-NH2 ... F
H-AARIILRGRFR-NH2 ... F

Hello, I need to know if H-AARIILRLRFR-NH2 has measured selectivity ratio not below 30. Thanks! T

Hello, I need to know if H-AARIILRYRFR-NH2 has measured selectivity ratio not below 30. Thanks! F

Hello, I need to know if H-AARIILRIRFR-NH2 has measured selectivity ratio not below 30. Thanks! F

Hello, I need to know if H-AARIILRPRFR-NH2 has measured selectivity ratio not below 30. Thanks! F

Hello, I need to know if H-AARIILRRRFR-NH2 has measured selectivity ratio not below 30. Thanks! F

Hello, I need to know if H-AARRILRWIFR-NH2 has measured selectivity ratio not below 30. Thanks! T

Hello, I need to know if H-AARIILRARFR-NH2 has measured selectivity ratio not below 30. Thanks! F

Hello, I need to know if H-AARIILRFRFR-NH2 has measured selectivity ratio not below 30. Thanks! T

Hello, I need to know if H-AARIILRDRFR-NH2 has measured selectivity ratio not below 30. Thanks! F

Hello, I need to know if H-AARIILRWRFR-NH2 has measured selectivity ratio not below 30. Thanks! T
